test system: Candida albicans; assay: Antifungal activity against Candida albicans SC5314 assessed as reduction in fungal growth incubated for 24 hrs by CLSI based microdilution analysis; type: functional
// boundary case: MIC80 equal to 0.2 µg/mL maps to n; strictly smaller maps to y

stdin: Quick check: MIC80 of COc1ccc2c(ccn2CCCCCCCCCN2CCN(CC(O)(Cn3cncn3)c3ccc(F)cc3F)CC2)c1 (centres undefined) under 0.2 µg/mL?
stdout: n

stdin: Does the reported MIC80 of CCC(C)n1ncn(-c2ccc(N3CCN(c4ccc(OCC5COC(Cn6cncn6)(c6ccc(Cl)cc6Cl)O5)cc4)CC3)cc2)c1=O (centres undefined) stay below 0.2 µg/mL?
stdout: y

stdin: Check if MIC80 falls below 0.2 µg/mL for OC(CN1CCN(CCn2ncc3cc(Br)ccc32)CC1)(Cn1cncn1)c1ccc(F)cc1F (centres undefined) .
stdout: y

stdin: Please state whether MIC80 is below 0.2 µg/mL for O=C(c1ccc2ccccc2c1)N1CCN(CC(O)(Cn2cncn2)c2ccc(F)cc2F)CC1 (centres undefined)
stdout: y

stdin: # TODO verify MIC80 < 0.2 µg/mL strictly for this compound: OC(CN1CCN(CCCCCCCCCCn2ccc3cc(Br)ccc32)CC1)(Cn1cncn1)c1ccc(F)cc1F (centres undefined)
stdout: n

stdin: Dear colleague, could you confirm whether MIC80 of COc1ccc2c(ccn2CCCCCCN2CCN(CC(O)(Cn3cncn3)c3ccc(F)cc3F)CC2)c1 (centres undefined) falls below 0.2 µg/mL? Thanks.
stdout: n

stdin: Item CN1CCN(CC(O)(Cn2cncn2)c2ccc(F)cc2F)CC1 (centres undefined) : MIC80 beneath 0.2 µg/mL, strictly?
stdout: n

stdin: API: query returns whether the compound falls strictly under 0.2 µg/mL in MIC80. Query: OC(CN1CCN(CCCn2ccc3ccc(Br)cc32)CC1)(Cn1cncn1)c1ccc(F)cc1F (centres undefined)
stdout: y

stdin: Is the reported MIC80 for OC(CN1CCN(CCCCCCn2ccc3ccc(F)cc32)CC1)(Cn1cncn1)c1ccc(F)cc1F (centres undefined) strictly below 0.2 µg/mL?
stdout: y

====

test system: Candida albicans; assay: Antifungal activity against fluconazole-resistant Candida albicans 24D assessed as inhibition of fungal growth measured for 24 hrs by CLSI based microdilution analysis; format: functional
assay.readout: MIC80 (µg/mL)
Report as a plain number; the unit µg/mL is understood.

stdin: Indicate its recorded MIC80; the compound in question is OC(CN1CCN(CCCn2ccc3cc(Br)ccc32)CC1)(Cn1cncn1)c1ccc(F)cc1F (stereo unspecified)
stdout: 0.062

stdin: Could you please provide reported MIC80 for O[C@@](CN1CCN(CCn2ccc3cc(Br)ccc32)CC1)(Cn1cncn1)c1ccc(F)cc1F ? Thanks!
stdout: 0.031

stdin: Note MIC80 for the compound shown: OC(CN1CCN(CCCn2ccc3ccccc32)CC1)(Cn1cncn1)c1ccc(F)cc1F (stereo unspecified)
stdout: 0.125

stdin: // fetch MIC80 given entry OC(CN1CCN(CCCCn2ccc3cc(Br)ccc32)CC1)(Cn1cncn1)c1ccc(F)cc1F (stereo unspecified)
stdout: 0.125

stdin: Please give the documented MIC80 of COc1ccc2c(ccn2CCCN2CCN(CC(O)(Cn3cncn3)c3ccc(F)cc3F)CC2)c1 (stereo unspecified)
stdout: 0.125

stdin: Input O=[N+]([O-])c1ccc2c(ccn2CCCN2CCN(CC(O)(Cn3cncn3)c3ccc(F)cc3F)CC2)c1 (stereo unspecified) , output reported MIC80.
stdout: 0.031

stdin: Return MIC80 for the following compound: OC(CN1CCN(CCCn2ccc3ccc(Cl)cc32)CC1)(Cn1cncn1)c1ccc(F)cc1F (stereo unspecified)
stdout: 0.062

stdin: State, in one line, measured MIC80 of OC(CN1CCN(CCn2ccc3cc(Cl)c(Cl)cc32)CC1)(Cn1cncn1)c1ccc(F)cc1F (stereo unspecified)
stdout: 0.062

stdin: Please indicate MIC80 recorded for OC(CN1CCN(CCCn2ccc3cc(Cl)ccc32)CC1)(Cn1cncn1)c1ccc(F)cc1F (stereo unspecified)
stdout: 0.062
